- test_method_notes: Cmax in Beagle dog at 1 mg/kg, po measured upto 24 hrs by LC-MS/MS analysis
- Assay type: ADME, organism-based, Canis lupus familiaris
- Parameters: route oral, dose 1 mg/kg, time <=24
- condition_context: in vivo
reported_endpoint: Cmax (nM)
Answers are plain numbers, in nM.

### Prompt Name the recorded Cmax for "CC[C@H](Nc1ncnc2[nH]cnc12)c1nc2cccc(F)c2c(=O)n1-c1ccccc1" .
### Response 500

---

- test_method_notes: Plasma concentration in CB.17 SCID mouse xenografted with TMD-8 cells at 1 mg/kg, po once daily for 19 days
- Format: ADME, organism-based
- condition_context: time 19 day
reported_endpoint: concentration at 456 h (µM)
Numbers only, in µM.

### Prompt Name the recorded concentration at 456 h for "C[C@H](Nc1nc(N)nc(N)c1C#N)c1c(-c2ccccc2)c(=O)n2cc(F)ccc2c1-c1ccc(F)cc1" .
### Response 0.21

---

- test_method_notes: Solubility of the compound
- Format: physicochemical
reported_endpoint: solubility (µM)
Answers are plain numbers, in µM.

Example entries and their recorded answers appear below.
smi: C[C@H](Nc1nc(N)nc(N)c1C#N)c1c(-c2ccccc2)c(=O)n2cc(F)ccc2c1-c1ccccc1
solubility (µM): 50.6

smi: Cc1nc(N)nc(N[C@@H](C)c2c(-c3ccccc3)c(=O)n3cc(F)ccc3c2-c2ccc(F)cc2)c1C#N
solubility (µM): 44.9

smi: C[C@H](Nc1nc(N)nc(N)c1C#N)c1cc2ccc(F)cn2c(=O)c1-c1ccccc1
solubility (µM): 691

smi: C[C@H](Nc1nc(N)nc(N)c1C#N)c1c(-c2ccccc2)c(=O)n2cc(F)ccc2c1-c1ccc(F)cc1
solubility (µM): 68.5

### Prompt Name the recorded solubility for "C[C@H](Nc1nc(N)nc(N)c1C#N)c1cc(=O)n2cc(F)ccc2c1-c1cc(F)cc(F)c1" .
### Response 368

---

- test_method_notes: Oral bioavailability in BALB/C mouse at 10 mg/kg measured upto 24 hrs by LC-MS analysis
- Format: ADME, organism-based
- condition_context: in vivo
reported_endpoint: bioavailability (%)
One number for each entry, in %.

Example entries and their recorded answers appear below.
smi: C[C@H](Nc1nc(N)nc(N)c1C#N)c1c(-c2ccccc2)c(=O)n2cc(F)ccc2c1-c1ccc(F)cc1
bioavailability (%): 39

smi: Cc1c([C@H](C)Nc2nc(N)nc(N)c2C#N)c(-c2ccccc2)c(=O)n2cc(F)ccc12
bioavailability (%): 30

smi: C[C@H](Nc1nc(N)nc(N)c1C#N)c1cc2ccc(F)cn2c(=O)c1-c1ccccc1
bioavailability (%): 22

smi: C[C@H](Nc1ncnc2[nH]cnc12)c1nc2cccc(Cl)c2c(=O)n1-c1ccccc1
bioavailability (%): 7

Record bioavailability for all entries; do not skip any.
1. C[C@H](Nc1nc(N)nc(N)c1C#N)c1cc(=O)n2cc(F)ccc2c1-c1cc(F)cc(F)c1
2. C[C@H](Nc1nc(N)nc(N)c1C#N)c1c(-c2ccccc2)c(=O)n2cc(F)ccc2c1C1CC1

### Response
[60, 16]

---

Exercise: for every item that follows, state its recorded Cmax.
- test_method_notes: Cmax in Sprague-Dawley rat at 10 mg/kg, po measured upto 24 hrs by LC-MS/MS analysis
- Type: ADME, organism-based
- Set-up: route oral, dose 10 mg/kg, time <=24
- condition_context: in vivo
Numbers only, in µM.

smi: C[C@H](Nc1ncnc2[nH]cnc12)c1nc2cccc(Cl)c2c(=O)n1-c1ccccc1
Cmax (µM): 1.88

// next entry
### Prompt Name the recorded Cmax for "C[C@H](Nc1nc(N)nc(N)c1C#N)c1c(-c2ccccc2)c(=O)n2cc(F)ccc2c1-c1ccc(F)cc1" .
### Response 4.8

---

- test_method_notes: Drug uptake in CB.17 SCID mouse tumor xenografted with TMD-8 cells at 10 mg/kg, po once daily for 19 days
- Assay type: ADME, organism-based, Neoplasm
- condition_context: time 19 day, read-out: Drug uptake
reported_endpoint: concentration at 456 h (nM)
Numbers only, in nM.

### Prompt Name the recorded concentration at 456 h for "C[C@H](Nc1nc(N)nc(N)c1C#N)c1c(-c2ccccc2)c(=O)n2cc(F)ccc2c1-c1ccc(F)cc1" .
### Response 1650

---

- test_method_notes: Tmax in BALB/C mouse at 30 mg/kg, po measured upto 24 hrs by LC-MS analysis
- Assay type: ADME, organism-based
- condition_context: in vivo
reported_endpoint: Tmax (min)
Answers are plain numbers, in min.

### Prompt Name the recorded Tmax for "CC[C@H](Nc1ncnc2[nH]cnc12)c1nc2cccc(F)c2c(=O)n1-c1ccccc1" .
### Response 15

---

- test_method_notes: Tmax in BALB/C mouse at 10 mg/kg, iv measured upto 24 hrs by LC-MS analysis
- Assay type: ADME, organism-based
- condition_context: in vivo
reported_endpoint: Tmax (min)
Answers are plain numbers, in min.

### Prompt Name the recorded Tmax for "C[C@H](Nc1ncnc2[nH]cnc12)c1nc2cccc(Cl)c2c(=O)n1-c1ccccc1" .
### Response 4.98

---

Exercise: for every item that follows, state its recorded concentration at 360 h.
- test_method_notes: Plasma concentration in CB.17 SCID mouse tumor xenografted with SUDHL-6 cells assessed as effect on body weight at 5 mg/kg, po once daily for 15 days
- Assay type: ADME, organism-based
- condition_context: time 15 day
One number for each entry, in nM.

smi: C[C@H](Nc1nc(N)nc(N)c1C#N)c1c(-c2ccccc2)c(=O)n2cc(F)ccc2c1-c1ccc(F)cc1
endpoint_value: 380

### Prompt Name the recorded concentration at 360 h for "CC[C@H](Nc1ncnc2[nH]cnc12)c1nc2cccc(F)c2c(=O)n1-c1ccccc1" .
### Response 30

---

- test_method_notes: Cmax in Beagle dog at 5 mg/kg, po measured upto 24 hrs by LC-MS/MS analysis
- Format: ADME, organism-based, Canis lupus familiaris
- Design: route oral, dose 5 mg/kg, time <=24
- condition_context: in vivo
reported_endpoint: Cmax (µM)
Numbers only, in µM.

### Prompt Name the recorded Cmax for "C[C@H](Nc1ncnc2[nH]cnc12)c1nc2cccc(Cl)c2c(=O)n1-c1ccccc1" .
### Response 5.68

---

- test_method_notes: Plasma concentration in CB.17 SCID mouse xenografted with OCI-LY10 cells at 10 mg/kg, po once daily for 24 days
- Format: ADME, organism-based
- condition_context: time 24 day
reported_endpoint: concentration at 576 h (nM)
Numbers only, in nM.

### Prompt Name the recorded concentration at 576 h for "C[C@H](Nc1nc(N)nc(N)c1C#N)c1c(-c2ccccc2)c(=O)n2cc(F)ccc2c1-c1ccc(F)cc1" .
### Response 1720

---

- test_method_notes: Volume of distribution at steady state in BALB/C mouse at 1 mg/kg, iv measured upto 24 hrs by LC-MS analysis
- Assay type: ADME, organism-based
- condition_context: in vivo, read-out: Vdss
reported_endpoint: Vd
Include the unit right after the number.

Example entries and their recorded answers appear below.
smi: C[C@H](Nc1nc(N)nc(N)c1C#N)c1cc2ccc(F)cn2c(=O)c1-c1ccccc1
Vd: 1.3 L/kg
//
smi: Cc1c([C@H](C)Nc2nc(N)nc(N)c2C#N)c(-c2ccccc2)c(=O)n2cc(F)ccc12
Vd: 1.7 L/kg
//
smi: C[C@H](Nc1nc(N)nc(N)c1C#N)c1c(-c2ccccc2)c(=O)n2cc(F)ccc2c1-c1ccc(F)cc1
Vd: 0.7 L/kg
//
smi: C[C@H](Nc1nc(N)nc(N)c1C#N)c1c(-c2ccccc2)c(=O)n2cc(F)ccc2c1C1CC1
Vd: 1.8 L/kg

// next entry
### Prompt Name the recorded Vd for "C[C@H](Nc1nc(N)nc(N)c1C#N)c1cc(=O)n2cc(F)ccc2c1-c1cc(F)cc(F)c1" .
### Response 1.9 L/kg

---

- test_method_notes: Volume of distribution at steady state in Beagle dog at 1 mg/kg, iv measured upto 24 hrs by LC-MS/MS analysis
- Format: ADME, organism-based, Canis lupus familiaris
- condition_context: beagle, in vivo, read-out: Vdss
reported_endpoint: Vd

### Prompt Name the recorded Vd for "C[C@H](Nc1nc(N)nc(N)c1C#N)c1c(-c2ccccc2)c(=O)n2cc(F)ccc2c1-c1ccc(F)cc1" .
### Response 0.4 L/kg

---

- test_method_notes: Plasma concentration in CB.17 SCID mouse xenografted with OCI-LY10 cells at 1 mg/kg, po once daily for 24 days
- Assay type: ADME, organism-based
- condition_context: time 24 day
reported_endpoint: concentration at 576 h (nM)
Answers are plain numbers, in nM.

### Prompt Name the recorded concentration at 576 h for "C[C@H](Nc1nc(N)nc(N)c1C#N)c1c(-c2ccccc2)c(=O)n2cc(F)ccc2c1-c1ccc(F)cc1" .
### Response 180

---

- test_method_notes: Cmax in BALB/C mouse at 10 mg/kg,po measured upto 24 hrs by LC-MS analysis
- Assay type: ADME, organism-based
- Design: route oral, dose 10 mg/kg, time <= 24
- condition_context: in vivo
reported_endpoint: Cmax (nM)
Numbers only, in nM.

smi: C[C@H](Nc1nc(N)nc(N)c1C#N)c1c(-c2ccccc2)c(=O)n2cc(F)ccc2c1-c1ccc(F)cc1
Cmax (nM): 7500

smi: C[C@H](Nc1nc(N)nc(N)c1C#N)c1cc2ccc(F)cn2c(=O)c1-c1ccccc1
Cmax (nM): 2600

smi: C[C@H](Nc1nc(N)nc(N)c1C#N)c1c(-c2ccccc2)c(=O)n2cc(F)ccc2c1C1CC1
Cmax (nM): 1300

smi: C[C@H](Nc1nc(N)nc(N)c1C#N)c1cc(=O)n2cc(F)ccc2c1-c1cc(F)cc(F)c1
Cmax (nM): 4700

smi: C[C@H](Nc1ncnc2[nH]cnc12)c1nc2cccc(Cl)c2c(=O)n1-c1ccccc1
Cmax (nM): 930

// next entry
### Prompt Name the recorded Cmax for "Cc1c([C@H](C)Nc2nc(N)nc(N)c2C#N)c(-c2ccccc2)c(=O)n2cc(F)ccc12" .
### Response 2100
